assay: Phosphate-buffered saline (PBS) solubility of compounds; format: physicochemical; conditions: aqueous buffer, thermodynamic from solid, PBS pH 7.5, 0.5 mg/mL, vortexed 90 min, filtered, LC-MS/MS, read-out: Solubility Range
Kindly supply the reported solubility at 90 min values for the records listed here.

* COc1ccc(-c2ccnc3cc(C(=O)Nc4ccc(C(=O)N[C@@H](CC(C)C)C(=O)O)cc4)nn23)cc1OC | > 10 µg/mL
* COC(=O)c1ccc(NC(=O)c2cc3nccc(-c4ccc(OC)c(OC)c4)n3n2)c(C)c1 | < 0.1 µg/mL
* COc1ccc(-c2ccnc3cc(C(=O)NC4CCN(C(=O)OC(C)(C)C)CC4)nn23)cc1OC | 0.1 to 10 µg/mL
* COC(=O)c1ccc2c(c1)CCCN2C(=O)c1cc2nccc(-c3ccc(OC)c(OC)c3)n2n1 | < 0.1 µg/mL
* COc1ccc(-c2ccnc3cc(C(=O)Nc4ccc(N5CCCC5)cc4)nn23)cc1OC | < 0.1 µg/mL

Batch lookup, solubility at 90 min per entry.
1. COC(=O)c1ccc(NC(=O)c2cc3nccc(-c4ccc(OC)c(OC)c4)n3n2)c(F)c1
2. COc1ccc(-c2ccnc3cc(C(=O)Nc4ccc(N(C)C)cc4)nn23)cc1OC
3. CCOc1ccc(NC(=O)c2cc3nccc(-c4ccc(OC)c(OC)c4)n3n2)cc1
4. COc1ccc(-c2ccnc3cc(C(=O)N[C@H]4CC[C@H](C(=O)N5CCN(C(=O)OC(C)(C)C)CC5)CC4)nn23)cc1OC
5. COc1ccc(-c2ccnc3cc(C(=O)Nc4ccc(N5CCC6(CC5)OCCO6)cc4)nn23)cc1OC
6. COc1ccc(-c2ccnc3cc(C(=O)NC45CCC(C(=O)N6CCN(C)CC6)(CC4)CC5)nn23)cc1OC

1: < 0.1 µg/mL; 2: < 0.1 µg/mL; 3: < 0.1 µg/mL; 4: 0.1 to 10 µg/mL; 5: < 0.1 µg/mL; 6: > 10 µg/mL

Batch lookup, solubility at 90 min per entry.
1. COc1ccc(-c2ccnc3cc(C(=O)N[C@H]4CC[C@H](C(=O)OC)CC4)nn23)cc1OC
2. COc1ccc(-c2ccnc3cc(C(=O)Nc4ccc(N5CCN(C(=O)OC(C)(C)C)CC5)cn4)nn23)cc1OC
3. COc1ccc(-c2ccnc3cc(C(=O)N[C@H]4CC[C@@H](C(=O)N5CCOCC5)CC4)nn23)cc1OC
4. COc1ccc(-c2ccnc3cc(C(=O)Nc4ccc(C(=O)O)cc4C)nn23)cc1OC

1. 0.1 to 10 µg/mL
2. < 0.1 µg/mL
3. > 10 µg/mL
4. 0.1 to 10 µg/mL

Value source: patent US20240199623A1
